For each entry below, report its viability, T/C value.
Test system: 855422-203-R-J1-PDC complex spheroid viability;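 also: spheroids exposed to compounds for seven days before readout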
Assay: Anticancer human tumor 855422-203-R-J1-PDC patient-derived bladder carcinoma cell line growth inhibition [POLQ]
Conditions: second compound 0.0316 µM; first compound 10 µM; active compounds read low
Please give a number only; it is taken to be in %.

Prompt line: Identify viability, T/C associated with the molecule CC1COCCN1c1cc(C2(S(C)(=N)=O)CC2)nc(-c2ccnc3[nH]ccc23)n1 (stereo not given) + Cc1cccc(N(C)C(=O)C2C(O)CCN2c2nc(C)cc(C(F)(F)F)c2C#N)c1
Response line: 12.5

Prompt line: Identify viability, T/C associated with the molecule O=C(Nc1ccc(O)c(NS(=O)(=O)c2ccc(F)cc2)c1)c1ccc(-c2ccccc2)cc1 + Nc1ccc(C#CCN(C(=O)Cc2ncc(C(F)(F)F)cc2C(F)(F)F)c2ccc(F)cc2)nn1
Response line: 77.5

Prompt line: Identify viability, T/C associated with the molecule CCCS(=O)(=O)Nc1ccc(F)c(C(=O)c2c[nH]c3ncc(-c4ccc(Cl)cc4)cc23)c1F + COC1C(OC(N)=O)C(O)C(Oc2ccc3c(O)c(NC(=O)c4ccc(O)c(CC=C(C)C)c4)c(=O)oc3c2C)OC1(C)C
Response line: 0.27

Prompt line: Identify viability, T/C associated with the molecule O=c1[nH]cc(F)c(=O)[nH]1 + COC1C(OC(N)=O)C(O)C(Oc2ccc3c(O)c(NC(=O)c4ccc(O)c(CC=C(C)C)c4)c(=O)oc3c2C)OC1(C)C
Response line: 23.6

Prompt line: Identify viability, T/C associated with the molecule COc1cc(C2c3cc4c(cc3C(OC3OC5COC(C)OC5C(O)C3O)C3COC(=O)C23)OCO4)cc(OC)c1O (stereo not given) + Nc1ccc(C#CCN(C(=O)Cc2ncc(C(F)(F)F)cc2C(F)(F)F)c2ccc(F)cc2)nn1
Response line: 7.23
